# ASSAY DETAILS: Volume of distribution at steady state in Sprague-Dawley rat at 10 mg/kg, po or 1 mg/kg, iv
# Format: ADME, organism-based
# MEASUREMENT CONDITIONS: in vivo, read-out: Vdss
QUANTITY KIND: Vd (L/kg)
API: value field is a number in L/kg; no unit string.

If you can, please state the reported Vd value of `CS(=O)(=O)c1cc(CNC(=O)c2cncc3c2cnn3-c2ccc(F)cc2)ccn1` .
1.2
